test system: SNB-75 CNS; experiment: NCI-60 one-dose screen, 48 h (100 = growth as untreated, 0 = no growth, -100 = all killed); settings: 10 µM unless noted
The panel holds about 83,000 compounds, 20% with a hit somewhere; the sample as a whole holds those more often.
Catalogue of growth values
# value in %; strip the unit string

# annotated cases, reported growth shown
Measured growth of CCCCNC(=O)Oc1ccc(/C(=C(\C)c2ccc(Cl)cc2)c2ccc(OCCN(CC)CC)cc2)cc1 : 64.9

# growth (compound: CCCCn1c(-c2ccc(-c3nc(-c4ccc(Cl)cc4)no3)cc2)nc(-c2ccccc2)c1-c1ccccc1 ) is 80.5

Reported growth of Cc1nc2ccccc2n1-c1ncnc2c1CC(C)c1ccccc1N2C (stereo not given) : 70.3

More entries:
Recorded growth (compound Cc1cccc2c3c(sc12)C(c1ccc(Cl)cc1)C(C#N)=C(N)O3 (stereo not given) ): 4.24

The value of growth measured for the compound Cc1cc(=O)oc2cc(OC(=O)CN3CCN(C)CC3)ccc12 turned out to be 74.5

Field growth (entry O=C(Nc1ccc(Cl)cc1F)c1ccccc1O ) reads 36.4

Per the record, CC1(C)C2CC1C1(/C=N/NC(N)=S)C(C2)C(C#N)(C#N)C1(C#N)C#N (stereo not given) has growth of 101

Short answer for CCS(=O)(=O)c1ncnc2nc[nH]c12 : growth was 90.9
